Test system: NR1a/NR2B NMDAR expressed in HEK293 cells
Type: cell-based, rat
Reported conditions: pH 7.35
Classification field: enter Condition met for % maximal inhibition, 1a/2B values not below 80%, Condition not met for values below it.

>>> group_label("GEγγYQKMAγNLRγAEVKKNA(NH2) [con-T[L9A]]")
"Condition met"
>>> group_label("GEγγYQKALAγNLRγAEVKKNA(NH2) [con-T[M8A/+A10]]")
"Condition not met"
>>> group_label("GEγγVAKNAAγLARγNI(NH2) [con-R′ [M8N]]")
"Condition not met"
>>> group_label("GEγγYQγMLγNLRγAEVKKNA(NH2) [con-T[K7γ]]")
"Condition met"

---

Tested on: NR1b/NR2B NMDAR expressed in HEK293 cells
Type: cell-based, rat
Reported conditions: pH 7.35
# % maximal inhibition, 1b/2B per entry
Endpoint name: % maximal inhibition, 1b/2B

>>> result("GEγγYQKMAγNLRγAEVKKNA(NH2) [con-T[L9A]]")
"95 ± 2%"
>>> result("GEγγYQKGLγNLRγAEVKKNA(NH2) [con-T[M8G]]")
"84 ± 4%"
>>> result("GEγγLQγNQγNLRγAEVKKNA(NH2) [con-G/T]")
"86 ± 4%"
>>> result("GEγγVAKNAAγLARγNI(NH2) [con-R′ [M8N]]")
"66 ± 5%"
>>> result("GEγγYQAMLγNLRγAEVKKNA(NH2) [con-T[K7A]]")
"94 ± 2%"
